B1: DLC1 (parent)
chain: HVTHWMGQPFNSDDRNTACHHGLV

variants of: B1; assay: protein stability index of a GFP-peptide fusion (GPS, HEK-293T) (PSI 1-6); higher = more stable; details: c terminus: a fixed tail appended;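 note: lentivirally expressed fusions sorted by FACS into six bins by GFP to DsRed ratio, PSI derived from sequencing read proportions per bin multiplied by bin number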
readout.label: protein stability index
Answers are plain numbers.

F10S: 2.35
G22C: 2.17
W5C: 3.33
P9M: 2.38

# map each variant to its protein stability index
1. N11C
2. D13S
3. A18R
4. V2P
5. H20L
6. N11V
7. G22Q

1. 2.17
2. 1.72
3. 2
4. 3.15
5. 1.6
6. 2.62
7. 2.1

# map each variant to its protein stability index
1. D14S
2. V2S
3. A18C
4. W5Y
5. C19H
6. F10D
7. N11W
8. H4T

1.83
2.62
1.83
3.01
2.13
3.03
3.88
2.38

# map each variant to its protein stability index
1. C19V
2. G7T
3. H20C
4. W5V
5. G22H
6. N11E

[2.04, 1.91, 2.25, 3.55, 1.99, 2.58]

# map each variant to its protein stability index
1. G7R
2. V24M

[1.76, 2.04]

# map each variant to its protein stability index
1. N11P
2. C19W
3. G22M
4. H20R
5. C19M
6. M6N
7. V2L

2.3
1.48
1.96
2.25
2.31
2.92
2.74

# map each variant to its protein stability index
1. V24Y
2. T3H
3. W5S
4. H21L
5. R15K

[1.69, 1.93, 4, 1.93, 2.11]

# map each variant to its protein stability index
1. C19I
2. S12G
3. P9A
4. F10K
5. H4I
6. R15A
7. C19Q

2.4
2.34
2.36
2.78
1.89
2.22
2.61
